system: Staphylococcus aureus; assay: Antibacterial activity against Staphylococcus aureus ATCC 6538 after 18 hrs by serial microdilution method; type: functional; conditions: ATCC 6538, 18 h
Overview of reported MIC across a group of compounds:
Please respond with the number in µg/mL and leave the unit unwritten.

Some compounds with recorded MIC:
smi	test.value
CO[C@H]1/C=C/O[C@@]2(C)Oc3c(C)c(O)c4c(O)c(c(CNCc5cn(CN6C(=O)c7ccccc7C6=O)nn5)c(O)c4c3C2=O)NC(=O)/C(C)=C\C=C\[C@H](C)[C@H](O)[C@@H](C)[C@@H](O)[C@@H](C)[C@H](OC(C)=O)[C@@H]1C	1
CCCCCc1cn(CCCNCc2c3c(O)c4c(O)c(C)c5c(c4c2O)C(=O)[C@@](C)(O/C=C/[C@H](OC)[C@@H](C)[C@@H](OC(C)=O)[C@H](C)[C@H](O)[C@H](C)[C@@H](O)[C@@H](C)/C=C/C=C(/C)C(=O)N3)O5)nn1	1

Task: Give its MIC value. Item: CO[C@H]1/C=C/O[C@@]2(C)Oc3c(C)c(O)c4c(O)c(c(CNCCCN5CCCC5)c(O)c4c3C2=O)NC(=O)/C(C)=C\C=C\[C@H](C)[C@H](O)[C@@H](C)[C@@H](O)[C@@H](C)[C@H](OC(C)=O)[C@@H]1C
Result: 0.5

Task: Give its MIC value. Item: CO[C@H]1/C=C\O[C@@]2(C)Oc3c(C)c(O)c4c(O)c(c(CNC5CCN(Cc6ccccc6)CC5)c(O)c4c3C2=O)NC(=O)/C(C)=C\C=C/[C@H](C)[C@H](O)[C@@H](C)[C@@H](O)[C@@H](C)[C@H](OC(C)=O)[C@@H]1C
Result: 0.125

Task: Give its MIC value. Item: CCCc1cn(CCNCc2c3c(O)c4c(O)c(C)c5c(c4c2O)C(=O)[C@@](C)(O/C=C/[C@H](OC)[C@@H](C)[C@@H](OC(C)=O)[C@H](C)[C@H](O)[C@H](C)[C@@H](O)[C@@H](C)/C=C/C=C(/C)C(=O)N3)O5)nn1
Result: 1

Task: Give its MIC value. Item: CO[C@H]1/C=C/O[C@@]2(C)Oc3c(C)c(O)c4c(O)c(c(/C=N/N5CCN(C)CC5)c(O)c4c3C2=O)NC(=O)/C(C)=C\C=C\[C@H](C)[C@H](O)[C@@H](C)[C@@H](O)[C@@H](C)[C@H](OC(C)=O)[C@@H]1C
Result: 0.008

Recorded values, source ChEMBL document CHEMBL3352679.
